Target: T1, His-tagged human TIGIT (human, UniProt Q495A1 22-141)
T1 construct: SPR analyte; also called human TIGIT protein; not shown: His tag
T1 sequence: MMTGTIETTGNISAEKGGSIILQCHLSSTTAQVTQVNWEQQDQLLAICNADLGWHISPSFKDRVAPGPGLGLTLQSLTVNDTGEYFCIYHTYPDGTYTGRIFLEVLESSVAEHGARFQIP
Experiment: SPR experiment 1, IgG from HEK293 supernatant captured
measured-endpoint: pKd
One number for each entry, as −log10 of the molar value.

>>> reported_result("humanized TIGIT-6 antibody 6VH6.M1 + 6VL1 (antibody, V domains shown, Full-length IgG, tested as HEK293 supernatant) VH: QVQLVQSGAEVKKPGASVKVSCKASGYTFTENAMHWVRQAPGQRLEWIGGINPNNGGTSYNQQFKGRATLTVDTSASTAYMELSSLRSEDTAVYYCTRSSYYRYDLDYWGQGTTVTVSS VL: DIQMTQSPSSLSASVGDRVTITCKASQDVKTALAWYQQKPGKAPKLLIYSASYRYTGVPSRFSGSGSGTDFTFTISSLQPEDIATYYCHQHYTTPWTFGGGTKLEIK")
9.20

Kindly give each listed record's pKd.
1. humanized TIGIT-6 antibody 6VH6.M3 + 6VL1 (antibody, V domains shown, Full-length IgG, tested as HEK293 supernatant) VH: QVQLVQSGAEVKKPGASVKVSCKASGYTITENTMHWVRQAPGQRLEWIGGINPNNGGTSYSQKFQGRATLTVDTSASTAYMELSSLRSEDTAVYYCTRSSYYRYDLDYWGQGTTVTVSS VL: DIQMTQSPSSLSASVGDRVTITCKASQDVKTALAWYQQKPGKAPKLLIYSASYRYTGVPSRFSGSGSGTDFTFTISSLQPEDIATYYCHQHYTTPWTFGGGTKLEIK
2. humanized TIGIT-6 antibody 6VH6 + 6VL1.M1 (antibody, V domains shown, Full-length IgG, tested as HEK293 supernatant) VH: QVQLVQSGAEVKKPGASVKVSCKASGYTITENTMHWVRQAPGQRLEWIGGINPNNGGTSYNQQFKGRATLTVDTSASTAYMELSSLRSEDTAVYYCTRSSYYRYDLDYWGQGTTVTVSS VL: DIQMTQSPSSLSASVGDRVTITCQASQDIKTALAWYQQKPGKAPKLLIYSASYRYTGVPSRFSGSGSGTDFTFTISSLQPEDIATYYCHQHYTTPWTFGGGTKLEIK

Given back:
1: 9.46; 2: 9.62

Kindly give each listed record's pKd.
1. TIGIT-6 chimeric antibody (antibody, human IgG1, kappa, V domains shown, also called 6VH + 6VL) VH: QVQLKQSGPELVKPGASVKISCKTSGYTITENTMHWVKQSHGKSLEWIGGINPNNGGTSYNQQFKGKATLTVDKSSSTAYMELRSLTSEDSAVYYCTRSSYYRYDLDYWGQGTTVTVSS VL: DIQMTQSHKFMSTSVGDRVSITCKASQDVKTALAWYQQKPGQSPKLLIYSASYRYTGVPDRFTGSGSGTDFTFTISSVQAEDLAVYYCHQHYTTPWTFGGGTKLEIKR
2. humanized TIGIT-6 antibody 6VH6.M4 + 6VL1 (antibody, V domains shown, Full-length IgG, tested as HEK293 supernatant) VH: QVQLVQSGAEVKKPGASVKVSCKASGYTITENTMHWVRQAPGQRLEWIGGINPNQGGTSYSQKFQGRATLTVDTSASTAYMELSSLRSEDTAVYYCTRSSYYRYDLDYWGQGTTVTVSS VL: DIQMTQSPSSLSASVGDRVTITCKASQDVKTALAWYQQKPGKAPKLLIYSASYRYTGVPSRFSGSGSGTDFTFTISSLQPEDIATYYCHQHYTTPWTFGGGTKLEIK
3. humanized TIGIT-6 antibody 6VH5 + 6VL1 (antibody, V domains shown, Full-length IgG, tested as HEK293 supernatant) VH: QVQLVQSGAEVKKPGASVKVSCKASGYTITENTMHWVRQAPGQRLEWIGGINPNNGGTSYNQQFKGRATLTRDTSASTAYMELSSLRSEDTAVYYCTRSSYYRYDLDYWGQGTTVTVSS VL: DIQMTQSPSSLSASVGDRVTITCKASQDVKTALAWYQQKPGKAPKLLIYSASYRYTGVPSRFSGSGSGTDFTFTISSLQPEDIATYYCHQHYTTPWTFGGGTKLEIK
4. humanized TIGIT-6 antibody 6VH6 + 6VL1 (antibody, V domains shown, Full-length IgG, tested as HEK293 supernatant) VH: QVQLVQSGAEVKKPGASVKVSCKASGYTITENTMHWVRQAPGQRLEWIGGINPNNGGTSYNQQFKGRATLTVDTSASTAYMELSSLRSEDTAVYYCTRSSYYRYDLDYWGQGTTVTVSS VL: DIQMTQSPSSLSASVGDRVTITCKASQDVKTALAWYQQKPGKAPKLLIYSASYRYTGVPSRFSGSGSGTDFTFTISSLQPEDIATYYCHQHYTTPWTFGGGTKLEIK

Given back:
1. 10.03
2. 9.19
3. 9.46
4. 9.52

Reference for the values: patent US20260139048A1
